Listed below: EC50 values for each entry.
biological target: T1, human CD137 expressed on the surface of CHO cells (human, UniProt Q07011 24-255); assay: FMAT, CHO human CD137 cells
T1 construct: Also used for the Jurkat reporter cells that express human CD137 (functional rows); also called CHO human CD137 cells; CHO huCD137
T1 sequence (Q07011 24-255 limits assumed): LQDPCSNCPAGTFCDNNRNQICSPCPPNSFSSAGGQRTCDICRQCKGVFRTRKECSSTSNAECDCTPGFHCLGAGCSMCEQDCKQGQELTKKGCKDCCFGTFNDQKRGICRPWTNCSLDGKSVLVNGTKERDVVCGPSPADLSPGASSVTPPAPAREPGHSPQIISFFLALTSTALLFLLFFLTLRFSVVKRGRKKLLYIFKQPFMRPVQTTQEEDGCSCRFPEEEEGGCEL
Entry rule: numbers only, all in nM.

Answered examples (3):
binder | EC50 / nM
Humabody VH 2.9 (VHH, human single VH domain) VH: EVQLVESGGGLVKPGGSLRLSCAASGFTFSDYYMTWFRQAPGKGLEWISYISGSGDTIDYAESVKGRFTISRDNAKNSLYLQMNSLRAEDTAVYHCAREDSRIAGTTDFDNWGPGTLVTVSSHHHHHH | 0.18
Humabody VH 2.26 (VHH, human single VH domain) VHH: EVQLVESGGGLVKPGGSLRLSCTASGFTFTDYYMSWFRQAPGKGLEWVSHISSSGTTIDYADSVKGRFTISRDNAKNSLYLQMNSLRADDTAVYYCAREDIRMPGTTDFDNWGQGTLVTVSS | 0.18
4.1(PSMA-binding VH)-6GS-2.1 (bispecific antibody, tandem VH, PSMA x CD137; also called 4.1-6GS-2.1; not shown: His tag) EVQLVESGGGVVQPGRSLRLSCAASGFSFSGYGMHWVRQAPGKGLEWVAYISYDGSNKYYADSVKGRFTISRDNSKNTLYLQMNSLRAEDTAVYYCAKDPAWGLRLGESSSYDFDIWGQGTMVTVSSGGGGSGGGGSGGGGSGGGGSGGGGSGGGGSEVQLVESGGGLVKPGGSLRVSCAASGFTFSDYYMSWFRQAPGKGLEWVSYISGSGDIIDYADSVKGRFTISRDNAKNSLYLQMNNLRAEDTAVYHCAREDSRLTGTTDFDNWGQGTLVTVSS | 0.97

Form field EC50, entry 4.1(PSMA-binding VH)-6GS-1.1 (bispecific antibody, tandem VH, PSMA x CD137; also called 4.1-6GS-1.1; not shown: His tag) EVQLVESGGGVVQPGRSLRLSCAASGFSFSGYGMHWVRQAPGKGLEWVAYISYDGSNKYYADSVKGRFTISRDNSKNTLYLQMNSLRAEDTAVYYCAKDPAWGLRLGESSSYDFDIWGQGTMVTVSSGGGGSGGGGSGGGGSGGGGSGGGGSGGGGSEVQLVESGGGLVQPGGSLRLSCAASGFTFSSHWMTWFRQAPGKGLEWVAHIKEDGSEKYYEDSVEGRFTVSRDNAKNSVYLQMNSLRAEDTAVYYCARGGDGYSDSHFGVDVWGQGTTVTVSS : 0.43

Recorded result, Humabody VH 2.2 (VHH, human single VH domain) VH: EVQLVESGGGLVKPGGSLRVSCAASGFTFSDYYMSWFRQAPGKGLEWVSYISGSGDIIDYADSVKGRFTISRDNAKNSLYLQMNSLRAEDTAVYHCAKEDSRIPGTTDFDNWGQGTLVTVSSHHHHHH , EC50: 0.18

Entry under test: Humabody VH 2.8 (VHH, human single VH domain) VH: EVQLVESGGGLVKPGGSLRLSCAASGFAFSDYYMSWFRQAPGKGLEWVSHISGSGTTIDYADSVKGRFTISRDNAKNSLYLQMNSLRAEDTAVYHCAREDSRMPGTTDFDNWGQGTLVTVSSHHHHHH . Its EC50 was 0.19
